Run Description: UV-Visible and fluorescence spectrometry
Assay type: physicochemical
Measurement Conditions: UV-Vis absorption maximum in EtOH
Assignment: determine reported λmax(nm)in EtOH for the given molecules.
One number for each entry, in nm.

Here's what some known entries look like.
- CCCCCCCCCCNc1cc2[s+]c3cc(N(CC)CC)ccc3nc2c2ccc(C)nc12 [Compound 17]: 651
- CCCNc1cc2[s+]c3cc(N(CC)CC)ccc3nc2c2ccc(C)nc12.[Cl-] [Compound 14]: 666
- CCCCCN(CCCCC)c1cc2[s+]c3cc(N(CC)CC)ccc3nc2c2ccc(C)nc12 [Compound 20]: 676
- CCCCN(CCCC)c1ccc2nc3c(cc(NCCC)c4nc(C)ccc43)[s+]c2c1 [Compound 24]: 654

Go through the items and report each one's λmax(nm)in EtOH.
1. CCCNc1c(I)c2[s+]c3cc(N(CC)CC)ccc3nc2c2ccc(C)nc12 [Compound 23]
2. CCN(CC)c1ccc2nc3c(cc(NCCCN)c4nc(C)ccc43)[s+]c2c1 [Compound 21]

Output line:
[633, 668]

Go through the items and report each one's λmax(nm)in EtOH.
1. CCCCCNc1cc2[s+]c3cc(N(CC)CC)ccc3nc2c2ccc(C)nc12 [Compound 15]
2. CCN(CC)c1ccc2nc3c(cc(N)c4nc(C)ccc43)[s+]c2c1 [Compound 8]
3. CCN(CC)c1ccc2nc3c(cc(NC)c4nc(C)ccc43)[s+]c2c1 [Compound 18]
4. CCN(CC)c1ccc2nc3c(cc(NCCCNC)c4nc(C)ccc43)[s+]c2c1 [Compound 22]
5. CCCN(CCC)c1cc2[s+]c3cc(N(CC)CC)ccc3nc2c2ccc(C)nc12 [Compound 19]

Output line:
1: 651; 2: 658; 3: 649; 4: 658; 5: 675

Input line: Please look up its λmax(nm)in EtOH: CCCCCCCNc1cc2[s+]c3cc(N(CC)CC)ccc3nc2c2ccc(C)nc12 [Compound 16]
Output line: 651

---

Test system: HT29 cell line
Run Description: Photocytotoxicity (PDT), MTT assay
Assay type: cell-based
Measurement Conditions: Homo sapiens, HT-29, light or radiation study, read-out: IC50 PDT
Assignment: determine reported IC50 for the given compounds.
Form entry: enter the amount, then its unit.

Go through the items and report each one's IC50.
1. CCN(CC)c1ccc2nc3c(cc(NCCCNC)c4nc(C)ccc43)[s+]c2c1 [Compound 22]
2. CCCNc1c(I)c2[s+]c3cc(N(CC)CC)ccc3nc2c2ccc(C)nc12 [Compound 23]

Output line:
["510 nM", "71 nM"]

Go through the items and report each one's IC50.
1. CCN(CC)c1ccc2nc3c(cc(N)c4nc(C)ccc43)[s+]c2c1 [Compound 8]
2. CCCCN(CCCC)c1ccc2nc3c(cc(NCCC)c4nc(C)ccc43)[s+]c2c1 [Compound 24]

Output line:
210 nM
74 nM

---

Assignment: determine reported logP for the given compounds.
Run Description: Partition coefficient (log P) between n-octanol and PBS by UV-Vis absorption
Type: physicochemical
Give bare numbers.

Here's what some known entries look like.
- CCCCCCCCCCNc1cc2[s+]c3cc(N(CC)CC)ccc3nc2c2ccc(C)nc12: 2.49
- CCN(CC)c1ccc2nc3c(cc(NCCCNC)c4nc(C)ccc43)[s+]c2c1: 0.65
- CCCCCNc1cc2[s+]c3cc(N(CC)CC)ccc3nc2c2ccc(C)nc12: 1.4

Go through the items and report each one's logP.
1. CCCCCN(CCCCC)c1cc2[s+]c3cc(N(CC)CC)ccc3nc2c2ccc(C)nc12
2. CCN(CC)c1ccc2nc3c(cc(NC)c4nc(C)ccc43)[s+]c2c1
3. CCCN(CCC)c1cc2[s+]c3cc(N(CC)CC)ccc3nc2c2ccc(C)nc12
4. CCN(CC)c1ccc2nc3c(cc(N)c4nc(C)ccc43)[s+]c2c1
5. CCCCN(CCCC)c1ccc2nc3c(cc(NCCC)c4nc(C)ccc43)[s+]c2c1
6. CCN(CC)c1ccc2nc3c(cc(NCCCN)c4nc(C)ccc43)[s+]c2c1
7. CCCNc1c(I)c2[s+]c3cc(N(CC)CC)ccc3nc2c2ccc(C)nc12
8. CCCNc1cc2[s+]c3cc(N(CC)CC)ccc3nc2c2ccc(C)nc12.[Cl-]

Output line:
1: 1.48; 2: 1.31; 3: 1.42; 4: 0.97; 5: 3.4; 6: 0.64; 7: 1.48; 8: 1.34

Input line: Please look up its logP: CCCCCCCNc1cc2[s+]c3cc(N(CC)CC)ccc3nc2c2ccc(C)nc12
Output line: 1.44
